Measured values drawn from patent US10576062B2 for this set.

Molecular target: human LPA1 (Homo sapiens)
Construct: expressed in transfected cells; host or cells: Chinese hamster ovary (CHO) cells
Experiment: LPA1 functional antagonist assay (LPA-induced calcium flux)
Assay type: cell-based
Conditions: CHO cells overexpressing human LPA1; inhibition of calcium flux induced by 10 nM LPA; read-out: hLPA1 IC50
pIC50: −log10 of the molar value.
quantity-measured: pIC50

1) CCc1nc(-c2nnn(C)c2COC(=O)N(C)CC)ccc1O[C@H]1CCC[C@H](C(=O)O)C1 [Example 202]    6.80
2) CN(CCC1CC1)C(=O)OCc1c(-c2ccc(O[C@H]3CCC[C@H](C(=O)O)C3)cn2)nnn1C [Example 3]    7.72
3) CN(Cc1ccccc1)C(=O)OCc1c(-c2ccc(O[C@H]3CCC[C@H](C(=O)O)C3)c(C#N)n2)nnn1C [Example 290]    8.70
4) CN(CC1CCC1)C(=O)OCc1c(-c2ccc(O[C@H]3CCC[C@H](C(=O)O)C3)c(C(C)(C)O)n2)nnn1C [Example 271]    6.65
5) Cc1nc(-c2nnn(C)c2COC(=O)N(C)CCC(C)F)ccc1O[C@H]1CCC[C@H](C(=O)O)C1 (stereo partly shown) [Example 260]    7.30
6) Cc1nc(-c2nnn(C)c2COC(=O)N(C)CC2(C)CC2)ccc1O[C@H]1CCC[C@H](C(=O)O)C1 [Example 263]    7.12
7) CCc1nc(-c2nnn(C)c2COC(=O)N(C)C2CCCC2)ccc1O[C@H]1CCC[C@H](C(=O)O)C1 [Example 195]    7.96

* * *

# pIC50 per record follows
Target: human LPA1 (Homo sapiens, UniProt Q92633)
Construct: expressed in transfected cells; host or cells: Chinese hamster ovary (CHO) cells
Sequence (Q92633 whole entry): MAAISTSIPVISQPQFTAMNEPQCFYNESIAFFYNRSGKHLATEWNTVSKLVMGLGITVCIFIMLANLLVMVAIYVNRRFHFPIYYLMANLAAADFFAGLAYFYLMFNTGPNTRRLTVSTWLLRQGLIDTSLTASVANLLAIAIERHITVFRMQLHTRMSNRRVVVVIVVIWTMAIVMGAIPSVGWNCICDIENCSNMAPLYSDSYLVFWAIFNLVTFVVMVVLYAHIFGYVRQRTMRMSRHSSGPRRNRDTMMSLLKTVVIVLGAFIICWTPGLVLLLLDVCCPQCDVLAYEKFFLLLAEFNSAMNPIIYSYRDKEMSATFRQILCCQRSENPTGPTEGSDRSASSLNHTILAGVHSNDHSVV
Experiment: LPA1 functional antagonist assay (LPA-induced calcium flux)
Type: cell-based
Conditions: CHO cells overexpressing human LPA1; inhibition of calcium flux induced by 10 nM LPA; read-out: hLPA1 IC50
pIC50: −log10 of the molar value.
quantity-measured: pIC50

1) CN(CC1CCC1)C(=O)OCc1c(-c2cnc(O[C@H]3CCC[C@H](C(=O)O)C3)cn2)nnn1C    7.17
2) CCc1nc(-c2nnn(C)c2COC(=O)N(C)C2CCC2)ccc1O[C@H]1CCC[C@H](C(=O)O)C1    8.10
3) CCc1nc(-c2nnn(C)c2COC(=O)N(C)C23CC(C2)C3)ccc1O[C@H]1CCC[C@H](C(=O)O)C1    7.47
4) CN(C(=O)OCc1c(-c2ccc(O[C@H]3CCC[C@H](C(=O)O)C3)cn2)nnn1C)C1CCCC1    7.72
5) Cc1nc(-c2nnn(C)c2CCOC(=O)N2CCCC2)ccc1O[C@H]1CCC[C@H](C(=O)O)C1    6.68
6) Cc1nc(-c2nnn(C)c2COC(=O)N(C)CC2CCC2)ccc1O[C@H]1CCC[C@H](C(=O)NS(C)(=O)=O)C1    6.45
7) CN(Cc1ccccc1)C(=O)OCc1c(-c2ccc(O[C@H]3CCC[C@H](C(=O)O)C3)c(C(F)F)n2)nnn1C    7.72
8) Cc1nc(-c2nnn(C)c2COC(=O)N(C)CCCF)cnc1O[C@H]1CCC[C@H](C(=O)O)C1    6.41
9) Cc1nc(-c2nnn(C)c2COC(=O)N(C)CC2CCC2)ccc1O[C@H]1CCC[C@](F)(C(=O)O)C1 (single isomer, unassigned) [Example 13]    7.02
10) CCCN(C)C(=O)OCc1c(-c2ccc(O[C@H]3CCC[C@H](C(=O)O)C3)c(CC)n2)nnn1C    7.96
11) CCCN(C)C(=O)OCc1c(-c2cnc(O[C@H]3CCC[C@H](C(=O)O)C3)c(C)n2)nnn1C    6.71
12) CCCOCCN(C)C(=O)OCc1c(-c2ccc(O[C@H]3CCC[C@H](C(=O)O)C3)c(C)n2)nnn1C    6.50
13) CN(C(=O)OCc1c(-c2ccc(O[C@H]3CCC[C@H](C(=O)O)C3)c(C(F)(F)F)n2)nnn1C)C1CCCC1    7.82
14) Cc1nc(-c2nnn(C)c2COC(=O)N(C)CC2CC2C)ccc1O[C@H]1CCC[C@H](C(=O)O)C1 (stereo partly shown)    7.54
15) CN(C(=O)OCc1c(-c2ccc(O[C@H]3CCC[C@H](C(=O)O)C3)c(C(F)F)n2)nnn1C)C1CCCC1    7.46
16) CN(C(=O)OCc1c(-c2cnc(O[C@H]3CCC[C@H](C(=O)O)C3)c(C(F)(F)F)c2)nnn1C)C1CCC1    5.92
17) COCc1nc(-c2nnn(C)c2COC(=O)N(C)C2CCC2)ccc1O[C@H]1CCC[C@H](C(=O)O)C1    7.04
18) Cc1nc(-c2nnn(C)c2CCOC(=O)N(C)CC(C)C)ccc1O[C@H]1CCC[C@H](C(=O)O)C1    7.16
19) CCc1nc(-c2nnn(C)c2COC(=O)N2CC(C)(C)C2)ccc1O[C@H]1CCC[C@H](C(=O)O)C1    6.99
20) CC(OC(=O)N(C)CC1CCC1)c1c(-c2ccc(O[C@H]3CCC[C@H](C(=O)O)C3)cc2)nnn1C (mixture of isomers)    6.42
21) Cc1nc(-c2nnn(C)c2CCOC(=O)NCC2CCC2)ccc1O[C@H]1CCC[C@H](C(=O)O)C1    6.84
22) CCc1nc(-c2nnn(C)c2COC(=O)N(C)CC(C)C)ccc1O[C@H]1CCC[C@H](C(=O)O)C1    7.57
23) CN(CC1CCC1)C(=O)OCc1c(-c2ccc(O[C@H]3CCC[C@H](C(=O)O)C3)c(C#N)n2)nnn1C    7.70
24) CCC(F)CN(C)C(=O)OCc1c(-c2cnc(O[C@H]3CCC[C@H](C(=O)O)C3)c(C)n2)nnn1C (mixture of isomers)    6.88
25) CN(C(=O)OCc1c(-c2cnc(O[C@H]3CCC[C@H](C(=O)O)C3)cn2)nnn1C)C1CCCC1    7.08
26) Cc1nc(-c2nnn(C)c2COC(=O)N(C)C[C@@H]2C[C@H]2C)ccc1O[C@H]1CCC[C@H](C(=O)O)C1    7.74
27) Cc1nc(-c2nnn(C)c2COC(=O)N(C)CC2CC2)cnc1O[C@H]1CCC[C@H](C(=O)O)C1    6.83
28) COCc1nc(-c2nnn(C)c2COC(=O)N(C)CC2CCC2)ccc1O[C@H]1CCC[C@H](C(=O)O)C1    6.99

* * *

Biological target: human LPA1 (Homo sapiens)
Construct: expressed in transfected cells; host or cells: Chinese hamster ovary (CHO) cells
Experiment: LPA1 functional antagonist assay (LPA-induced calcium flux)
Type: cell-based
Details: read-out: hLPA1 IC50
pIC50: −log10 of the molar value.
Use 7 as the dividing line for pIC50, with the line itself on the Fulfilled side and lower values as Not fulfilled.

1) Cc1nc(-c2nnn(C)c2COC(=O)N(C)[C@H](C)C2CC2)ccc1O[C@H]1CCC[C@H](C(=O)O)C1    Fulfilled
2) CCCC(C)N(C)C(=O)OCc1c(-c2ccc(O[C@H]3CCC[C@H](C(=O)O)C3)c(C)n2)nnn1C (mixture of isomers)    Fulfilled
3) Cc1nc(-c2nnn(C)c2COC(=O)N2CCC(F)(F)C2)ccc1O[C@H]1CCC[C@H](C(=O)O)C1    Not fulfilled
4) [2H]C([2H])([2H])n1nnc(-c2ccc(O[C@H]3CCC[C@H](C(=O)O)C3)cn2)c1COC(=O)N(C)CC1CC1    Fulfilled
5) Cc1nc(-c2nnn(C)c2COC(=O)N(C)Cc2ccnn2C)ccc1O[C@H]1CCC[C@H](C(=O)O)C1    Not fulfilled
6) Cc1nc(-c2nnn(C)c2COC(=O)N(C)Cc2ccc(Cl)cc2)ccc1O[C@H]1CCC[C@H](C(=O)O)C1    Not fulfilled
7) CN(C(=O)OCc1c(-c2ccc(O[C@H]3CCC[C@H](C(=O)O)C3)cn2)nnn1C)C(C1CC1)C1CC1    Fulfilled
8) [2H]C([2H])([2H])n1nnc(-c2ccc(O[C@H]3CCC[C@H](C(=O)O)C3)cn2)c1COC(=O)N(C)C1CCCC1    Fulfilled
9) Cc1nc(-c2nnn(C)c2COC(=O)N(C)C2(CC(C)C)CC2)ccc1O[C@H]1CCC[C@H](C(=O)O)C1    Not fulfilled
10) Cc1nc(-c2nnn(C)c2COC(=O)NC23CC(C2)C3)ccc1O[C@H]1CCC[C@H](C(=O)O)C1    Not fulfilled
11) Cc1nc(-c2nnn(C)c2COC(=O)N(C)C2CC2)ccc1O[C@H]1CCC[C@H](C(=O)O)C1    Not fulfilled
12) CCCC(C)N(C)C(=O)OCc1c(-c2ccc(O[C@H]3CCC[C@H](C(=O)O)C3)c(C)c2)nnn1C (mixture of isomers)    Fulfilled
13) CCCC(C)N(C)C(=O)OCc1c(-c2ccc(O[C@H]3CCC[C@H](C(=O)O)C3)cn2)nnn1C (mixture of isomers)    Fulfilled
14) Cc1nc(-c2nnn(C)c2COC(=O)N(C)CC2CC2)ccc1O[C@H]1CCC[C@H](C(=O)O)C1    Fulfilled
15) CN(C(=O)OCc1c(-c2ccc(O[C@H]3CCC[C@H](C(=O)O)C3)cn2)nnn1C)C1(C)CC1    Fulfilled
16) Cc1nc(-c2nnn(C)c2COC(=O)N2CCOCC2)ccc1O[C@H]1CCC[C@H](C(=O)O)C1    Not fulfilled
17) CC(C1CCC1)N(C)C(=O)OCc1c(-c2ccc(O[C@H]3CCC[C@H](C(=O)O)C3)cc2)nnn1C (single isomer, unassigned) [Example 48]    Fulfilled
18) Cc1cc(-c2nnn(C)c2COC(=O)N(C)Cc2ccccc2)ccc1O[C@H]1CCC[C@H](C(=O)O)C1    Fulfilled
19) Cc1nc(-c2nnn(C)c2COC(=O)N(C)C2CCC2)ccc1O[C@H]1CCC[C@H](C(=O)O)C1    Fulfilled
20) CCCCN(CC)C(=O)OCc1c(-c2ccc(O[C@H]3CCC[C@H](C(=O)O)C3)c(C)n2)nnn1C    Fulfilled
